Data credit: patent US20090221642A1

# Tested system: hM5 (human Muscarinic receptor subtype 5) (Homo sapiens)
# Construct: expressed in transfected cells; host or cells: CHO cells (Chinese hamster ovary cells, ATCC)
# Sequence (P08912 whole entry): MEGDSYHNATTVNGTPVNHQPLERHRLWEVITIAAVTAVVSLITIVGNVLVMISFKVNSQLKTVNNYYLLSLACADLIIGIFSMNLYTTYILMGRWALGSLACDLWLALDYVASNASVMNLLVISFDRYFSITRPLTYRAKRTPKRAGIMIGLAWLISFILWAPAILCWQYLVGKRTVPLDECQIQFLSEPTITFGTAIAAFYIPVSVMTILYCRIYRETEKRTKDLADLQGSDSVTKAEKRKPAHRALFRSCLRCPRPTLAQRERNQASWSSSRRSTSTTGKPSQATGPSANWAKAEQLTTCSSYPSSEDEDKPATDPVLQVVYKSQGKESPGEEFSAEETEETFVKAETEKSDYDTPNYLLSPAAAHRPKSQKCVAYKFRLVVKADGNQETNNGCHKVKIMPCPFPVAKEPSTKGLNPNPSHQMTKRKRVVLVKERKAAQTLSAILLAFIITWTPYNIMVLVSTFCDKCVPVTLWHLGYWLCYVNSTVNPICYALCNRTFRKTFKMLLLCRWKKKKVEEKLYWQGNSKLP
# Measurement notes: Human M5 calcium mobilization FLIPR assay
# Assay type: cell-based
# Measurement setup: hM5 expressed in CHO cells, intracellular Ca2+ release, read-out: hM5 EC50
Readout name: EC50 (nM)
Answer with a number only, understood to be in nM.

Task item: Can you look up the measured EC50 of C#CCOC(=O)N1CCC(C)(N2CCC(n3c(=O)[nH]c4ccc(C)cc43)CC2)C1 (single isomer, unassigned) [Example 43] for me?
Reply: 205

Task item: Okay, and CCOC(=O)N1CCC(C)(N2CCC(n3c(=O)[nH]c4cc(F)c(C)cc43)CC2)C1 (single isomer, unassigned) [Example 56] ?
Reply: 1280

Task item: And what about the molecule CCOC(=O)N1CCC(C)(N2CCC(n3c(=O)[nH]c4cc(F)c(F)cc43)CC2)C1 (single isomer, unassigned) [Example 57] ?
Reply: 356

Task item: Field entry: COC(=O)N1CCC(C)(N2CCC(n3c(=O)[nH]c4ccc(C)cc43)CC2)C1 (single isomer, unassigned) [Example 45]
Reply: 1080

* * *

# Tested system: cloned human M4 receptor (human Muscarinic receptor subtype 4) (Homo sapiens)
# Construct: purchased Perkin-Elmer RBHM4M; host or cells: Chinese hamster ovary cells (CHO) membranes
# Sequence (P08173 whole entry): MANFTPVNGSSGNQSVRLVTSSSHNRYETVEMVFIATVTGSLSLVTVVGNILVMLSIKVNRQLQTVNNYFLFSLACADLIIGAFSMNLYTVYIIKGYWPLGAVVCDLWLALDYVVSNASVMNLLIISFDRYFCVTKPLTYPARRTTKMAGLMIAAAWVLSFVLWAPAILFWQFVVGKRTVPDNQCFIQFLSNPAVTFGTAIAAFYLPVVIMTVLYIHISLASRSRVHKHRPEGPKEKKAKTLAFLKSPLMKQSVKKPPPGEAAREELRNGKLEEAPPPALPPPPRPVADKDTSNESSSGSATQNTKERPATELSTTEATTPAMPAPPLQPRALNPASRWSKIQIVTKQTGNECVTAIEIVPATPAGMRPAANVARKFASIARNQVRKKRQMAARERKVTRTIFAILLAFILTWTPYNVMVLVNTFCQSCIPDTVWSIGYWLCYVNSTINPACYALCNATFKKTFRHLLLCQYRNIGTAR
# Measurement notes: hM4 receptor GTPγS binding
# Format: biochemical
# Measurement setup: CHO cell membranes expressing hM4; [35S]GTPγS binding; read-out: hM4 EC50
Readout name: pEC50
# reply with the number alone; pEC50 is -log10 of concentration in mol/L

Task item: Entry CCOC(=O)N1CCC(C)(N2CCC(n3c(=O)[nH]c4cc(F)c(F)cc43)CC2)C1 (single isomer, unassigned) [Example 58] has what pEC50?
Reply: 5.01

Task item: Check COC(=O)N1CCC(C)(N2CCC(n3c(=O)[nH]c4ccc(C)cc43)CC2)C1 (single isomer, unassigned) [Example 45] too.
Reply: 4.95

Task item: Entry to check: COC(=O)N1CCC(C)(N2CCC(n3c(=O)[nH]c4cc(C)ccc43)CC2)C1 (single isomer, unassigned)
Reply: 5.46

Task item: Let us now turn to CC#CCOC(=O)N1CCC(C)(N2CCC(n3c(=O)[nH]c4ccccc43)CC2)C1 (single isomer, unassigned) [Example 33]
Reply: 6.50

Task item: Same question, C#CCOC(=O)N1CCC(C)(N2CCC(n3c(=O)[nH]c4cc(F)ccc43)CC2)C1 (single isomer, unassigned) [Example 36] this time
Reply: 5.17

Task item: Queued: COC(=O)N1CCC(C)(N2CCC(N3C(=O)Cc4ccc(C)cc43)CC2)C1 (single isomer, unassigned) [Example 68]
Reply: 5.21

Task item: Follow-up entry: CCOC(=O)N1CCC(C)(N2CCC(n3c(=O)[nH]c4cc(F)c(C)cc43)CC2)C1 (single isomer, unassigned) [Example 55]
Reply: 5.77

Task item: # iterate: COC(=O)N1CCC(C)(N2CCC(n3c(=O)[nH]c4cc(F)ccc43)CC2)C1 (single isomer, unassigned) [Example 23]
Reply: 5.41

Task item: CC#CCOC(=O)N1CCC(C)(N2CCC(n3c(=O)[nH]c4ccc(C)cc43)CC2)C1 (single isomer, unassigned) , same question.
Reply: 7.01

Task item: How about this compound: COC(=O)N1CCC(C)(N2CCC(n3c(=O)[nH]c4ccccc43)CC2)C1 (racemic)
Reply: 5.60

Task item: Also Cc1ccc2c(c1)[nH]c(=O)n2C1CCN(C2(C)CCN(C(=O)OCCF)C2)CC1 (single isomer, unassigned) ?
Reply: 5.51

Task item: Now the same for CCOC(=O)N1CCC(C)(N2CCC(n3c(=O)[nH]c4ccc(F)cc43)CC2)C1 (single isomer, unassigned) [Example 49]
Reply: 5.02

Task item: Similarly, CCOC(=O)N1CCC(C)(N2CCC(n3c(=O)[nH]c4ccccc43)CC2)C1 (centres unmarked) ?
Reply: 5.77

Task item: Same again, this time with CCOC(=O)N1CCC(C)(N2CCC(N3C(=O)Cc4ccc(F)cc43)CC2)C1 (single isomer, unassigned) [Example 74]
Reply: 5.44

Task item: Now consider CC1(N2CCC(n3c(=O)[nH]c4ccccc43)CC2)CCN(C(=O)OCCF)C1 (single isomer, unassigned) [Example 31] .
Reply: 5.92

Task item: Further, for COC(=O)N1CCC(C)(N2CCC(n3c(=O)[nH]c4ccc(F)cc43)CC2)C1 (single isomer, unassigned) ?
Reply: 5.29

Task item: Here is the next compound: COC(=O)N1CCC(C)(N2CCC(n3c(=O)[nH]c4ccc(C)cc43)CC2)C1 (single isomer, unassigned) [Example 47]
Reply: 6.04

Task item: Now consider CCOC(=O)N1CCC(C)(N2CCC(N3C(=O)Cc4cc(F)c(C)cc43)CC2)C1 (single isomer, unassigned) [Example 82] and answer again.
Reply: 6.03

Task item: How about this compound: CCOC(=O)N1CCC(C)(N2CCC(n3c(=O)[nH]c4cc(F)c(F)cc43)CC2)C1 (single isomer, unassigned) [Example 57]
Reply: 5.66

Task item: // query: C#CCOC(=O)N1CCC(C)(N2CCC(n3c(=O)[nH]c4cc(F)ccc43)CC2)C1 (centres unmarked) [Example 11]
Reply: 6.15

Task item: Another compound to check: CCOC(=O)N1CCC(C)(N2CCC(N3C(=O)Cc4cc(F)ccc43)CC2)C1 (single isomer, unassigned) [Example 79]
Reply: 5.36

Task item: Same again, this time with CC1(N2CCC(n3c(=O)[nH]c4cc(F)ccc43)CC2)CCN(C(=O)OCCF)C1 (single isomer, unassigned) [Example 24]
Reply: 5.29

Task item: CCOC(=O)N1CCC(C)(N2CCC(n3c(=O)[nH]c4ccc(F)cc43)CC2)C1 (single isomer, unassigned) [Example 50] ?
Reply: 5.70
